molecular target: 5-hydroxytryptamine receptor 1A (Homo sapiens); assay: Displacement of [3H]8-OH-DPAT from recombinant human 5-HT1A receptor expressed in HEK293 cell membranes after 60 mins by liquid scintillation counting method
Sequence (P08908 whole entry): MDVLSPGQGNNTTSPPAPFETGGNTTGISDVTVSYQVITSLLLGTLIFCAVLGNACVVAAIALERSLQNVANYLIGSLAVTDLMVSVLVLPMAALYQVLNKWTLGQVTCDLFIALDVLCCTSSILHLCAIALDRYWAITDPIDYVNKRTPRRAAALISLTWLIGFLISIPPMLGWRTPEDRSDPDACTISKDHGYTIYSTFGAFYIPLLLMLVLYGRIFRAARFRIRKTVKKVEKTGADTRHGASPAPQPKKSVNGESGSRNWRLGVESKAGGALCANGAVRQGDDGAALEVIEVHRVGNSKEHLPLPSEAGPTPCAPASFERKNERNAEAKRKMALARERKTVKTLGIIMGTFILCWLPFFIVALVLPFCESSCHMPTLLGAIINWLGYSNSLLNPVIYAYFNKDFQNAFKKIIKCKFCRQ
pKi: −log10 of the molar value.
Measured pKi values are reported for all entries that follow.
quantity_name: pKi

[
  {
    "cpd_smiles": "Cc1cc(C)c(OCCOCCN2CCN(CCc3ccccc3)CC2)c(C)c1.Cl.Cl",
    "observed": 6.26
  },
  {
    "cpd_smiles": "COc1ccccc1N1CCN(CCOCCOc2c(C)cc(C)cc2C)CC1.Cl.Cl",
    "observed": 8.30
  },
  {
    "cpd_smiles": "Cc1cc(OCCCN2CCN(c3ccccc3)CC2)ccc1Cl.Cl.Cl",
    "observed": 7.70
  },
  {
    "cpd_smiles": "Cc1cc(C)c(OCCN2CCN(CCOCCO)CC2)c(C)c1.Cl.Cl",
    "observed": 5.50
  },
  {
    "cpd_smiles": "COc1ccccc1N1CCN(CCCOc2ccc(C)cc2C)CC1.Cl",
    "observed": 8.70
  },
  {
    "cpd_smiles": "COc1ccc(N2CCN(CCCOc3c(C)cc(C)cc3C)CC2)cc1.Cl.Cl",
    "observed": 6.84
  },
  {
    "cpd_smiles": "COc1ccccc1N1CCN(CCOCCOc2cc(C)cc(C)c2C)CC1.Cl.Cl",
    "observed": 7.49
  }
]
